Where do these numbers come from? They come from PubChem BioAssay.

test.description: reducers of endogenous Her2 protein level, primary screen, SKBR3 breast tumor cells, AlphaScreen, ATP viability (AID 461);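 also: percent of carrier control wells set as 100% viability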
condition.summary: 18-24 h, measured here: SKBR3 viability, ATP luminescence, at 10 µM
value.kind: viability (%)
Numbers only, in %.

Below, 4 compounds whose answers are already recorded.
CCS(=O)(=O)N1CCC(C(=O)NC2CCCCC2)CC1 | 113
CCOc1ccc(OCC)c(NC(=O)C2CCN(S(=O)(=O)c3cnc[nH]3)CC2)c1 | 95.5
Cc1ccc2[nH]c(=O)c(CN(CCCO)S(=O)(=O)c3c(C)ccc4nsnc34)cc2c1 | 91
Cc1ccc2[nH]c(=O)c(C(c3nnnn3CCc3ccccc3)N3CCOCC3)cc2c1 (configuration not stated) | 86

Okay, here is my list. What is viability for each of these?
1. O=C1c2ccccc2C(Nc2ccc3nc(-c4cccnc4)[nH]c3c2)N1Cc1ccco1 (configuration not stated)
2. O=c1c2ccccc2nc(SCc2nnc(-c3ccccc3Br)o2)n1-c1ccccc1

1: 88.5; 2: 77

Okay, here is my list. What is viability for each of these?
1. Cc1cc(NC(=O)CSc2nnc(C3CC3)n2C)no1
2. OC(CN1CCOCC1)Cn1c(-c2cccc(Cl)c2)nc2ccccc21 (configuration not stated)
3. Cc1nc2oc3c(NCc4ccccn4)ncnc3c2c2c1COC(C)(C)C2
4. NC(=O)c1cc(-c2ccccc2)nc(N2CCOCC2)n1
5. CC(NC(=O)c1ccco1)c1ccc2c(c1)OCCO2 (configuration not stated)
6. CN1CCc2c(sc3c2c(=O)n(-c2ccccc2)c2nnc(SCc4ccc(F)cc4)n32)C1
7. C=CCN(CC=C)C(=O)CN1C(=O)c2ccccc2C1=O

[91, 100, 90, 102, 116, 82, 125]

Okay, here is my list. What is viability for each of these?
1. O=C(COn1nnc2ccc(C(F)(F)F)cc21)Nc1nnc(-c2ccccc2)o1
2. COc1ccc(N2CCN(CCNS(=O)(=O)c3cccc4nsnc34)CC2)cc1
3. O=C(CSc1nnc(C2COc3ccccc3O2)o1)N1CCCc2ccccc21 (configuration not stated)
4. Cc1ccccc1Cn1ccc(NC(=O)c2cnn3c(C(F)(F)F)cc(-c4ccco4)nc23)n1

1: 87; 2: 98; 3: 85.5; 4: 76.5

====

Would you kindly list inhibition for each of these compounds?
test.description: growth suppression of yeast trafficking mutant, preliminary HTS, modulators of trafficking downstream of Golgi apparatus project, 1536-format plate, OD 615 nm (AID 637)
condition.summary: yeast transport mutant growth, absorbance 615 nm, 18 h; stronger effect = higher value
One number for each entry, in %.

Below, 5 compounds whose answers are already recorded.
COc1ccc(NC(=O)CSc2nc(C)cc(C(F)(F)F)n2)cc1 | -4.91
N#Cc1ccc(CSc2nnc(-c3ccccn3)n2-c2ccccc2)cc1 | -1.09
CC1CN(CC(O)COc2ccc(C(C)C)cc2)CC(C)O1 (configuration not stated) | 6
CCCOc1ccccc1NC(=O)c1ccc(N)cc1 | -2.17
Cc1nnc2ccc(N3CCC4(CC3)OCCO4)nn12 | -3

Okay, here is my list. What is inhibition for each of these?
1. COc1cc(C2N=C(c3ccccc3)NO2)cc(Br)c1O (configuration not stated)
2. COc1ccccc1-c1cc(C(=O)Nc2cc(C)nn2-c2ccccc2)no1
3. N#Cc1c(-c2ccccc2)nc(N2CCCCCC2)[nH]c1=O
4. COc1ccccc1OCCCn1c(=O)oc2ccccc21
5. Cc1nc(SC2C=CS(=O)(=O)C2)n[nH]1 (configuration not stated)
6. O=C(NO)c1ccccc1O

[-10, -3.11, -3.02, 2.79, 3.11, 6.83]

Data request, read-out inhibition, for `Cn1c(=O)[nH]c(=O)c2c1nc(Br)n2Cc1ccccc1F`
3.87
